Parameter Average (percentage cell inhibition), Dmastoparan MDA-MB231 12.5uM, tested on MDA-MB-231 cells, listed per item.
experimental_endpoint: Average (percentage cell inhibition), Dmastoparan MDA-MB231 12.5uM (%)

molecule="CC[C@H](C)[C@H](N)C(=O)N[C@@H](CC(N)=O)C(=O)N[C@@H](CC(C)C)C(=O)N[C@@H](CCCCN)C(=O)N[C@@H](C)C(=O)N[C@@H](CC(C)C)C(=O)N[C@@H](C)C(=O)N[C@@H](C)C(=O)N[C@@H](CC(C)C)C(=O)N[C@@H](CCC(=O)O)C(=O)N[C@@H](CCCCN)C(=O)N[C@@H](CCCCN)C(=O)N[C@H](C(=O)N[C@@H](CC(C)C)C(N)=O)[C@@H](C)CC [E10]" readout_units=% recorded_value=7.891
molecule="CC[C@H](C)[C@H](N)C(=O)N[C@@H](CC(N)=O)C(=O)N[C@@H](CC(C)C)C(=O)N[C@@H](CCCCN)C(=O)N[C@@H](C)C(=O)N[C@@H](CC(C)C)C(=O)N[C@@H](C)C(=O)N[C@@H](C)C(=O)N[C@@H](CC(C)C)C(=O)N[C@@H](C)C(=O)N[C@@H](CCCCN)C(=O)N[C@@H](CCCCN)C(=O)N[C@@H](CCC(=O)O)C(=O)N[C@@H](CC(C)C)C(N)=O [E13]" readout_units=% recorded_value=42.4043
molecule="CC[C@H](C)[C@H](N)C(=O)N[C@@H](CC(N)=O)C(=O)N[C@@H](CC(C)C)C(=O)N[C@@H](CCCCN)C(=O)N[C@@H](C)C(=O)N[C@@H](CC(C)C)C(=O)N[C@@H](CC(N)=O)C(=O)N[C@@H](C)C(=O)N[C@@H](CC(C)C)C(=O)N[C@@H](C)C(=O)N[C@@H](CCCCN)C(=O)N[C@@H](CCCCN)C(=O)N[C@H](C(=O)N[C@@H](CC(C)C)C(N)=O)[C@@H](C)CC [N7]" readout_units=% recorded_value=28.8818
